Method summary: soluble on expression in E. coli; label from the status in PepcDB or PDB records
Measured parameter: soluble on expression in E. coli

INSERT INTO results (record_sequence, reading) VALUES
  ('MGSDKIHHHHHHCKPSKDETSSLKTADRKPLVTNLGNNVILPRYVALNTSVNAFDSEVQIFTAAPTIENLTSLRIKFYQAYIDWEYVACFEFGPAAASTVNLGTKTVNAFPADTAVIKNKIVQGVTAIPPTNSAMYSGFPAIDYLLFAKSLTAQQIVDSFTVSSTAVKRCNYLKTVSSDLKARINTTYTNWTASGANFISLYTNSTGIDLGSATSQTVNMLVADVENIKNFKLGIPLNIIQNVVVGDGSTVNPFKCEGYHSDSSLVLAKASIESLRKLYLGIGADGTDGEGFDNYLEAIDRSGLNVQIKNQIALLQAKLDAIPAPISIAIKNPAGKQAVNEAYTETLHLLVLLKVDMASAIGVMISYGDTDGD', 'not soluble'),
  ('MGSDKIHHHHHHLAKNNPISIPVSELRLGLTVKLPLSWTEHPFLINRIELKEQAQIEMIRGLKVQHVLVLAGAELLDEDVPKEEVPIEDDGFDEDMPERDVKREARVAIRKSQKRFLDCVNDSRSLVGKLGSDPEGAYRLSATLVEQMLEHLFEQEAAYLALVSAGEQGASVTQHGISVAVLSLMIAKSMDMPKKDMRDIALGALLHDIGKLRVPDNIRRKRGPLTTQEINFMNQHPNYGHEMLSRSGLFPEEVLHIIRHHHEFIDGTGFPGGLNGKKIPRTTQIVTLANDFEDQMTSHSIASPQVALGYLFKHRVGKHDEALIATLVKVLRHLSARYSGASHRRFFGKGDDDHPGSQAASGVGLQRRRRRPRPQNLDE', 'not soluble');
